# tested-on: EGFR L858R/C797S (Homo sapiens, UniProt P00533, C797S/L858R)
# Sequence (P00533 25-1210 C797S/L858R): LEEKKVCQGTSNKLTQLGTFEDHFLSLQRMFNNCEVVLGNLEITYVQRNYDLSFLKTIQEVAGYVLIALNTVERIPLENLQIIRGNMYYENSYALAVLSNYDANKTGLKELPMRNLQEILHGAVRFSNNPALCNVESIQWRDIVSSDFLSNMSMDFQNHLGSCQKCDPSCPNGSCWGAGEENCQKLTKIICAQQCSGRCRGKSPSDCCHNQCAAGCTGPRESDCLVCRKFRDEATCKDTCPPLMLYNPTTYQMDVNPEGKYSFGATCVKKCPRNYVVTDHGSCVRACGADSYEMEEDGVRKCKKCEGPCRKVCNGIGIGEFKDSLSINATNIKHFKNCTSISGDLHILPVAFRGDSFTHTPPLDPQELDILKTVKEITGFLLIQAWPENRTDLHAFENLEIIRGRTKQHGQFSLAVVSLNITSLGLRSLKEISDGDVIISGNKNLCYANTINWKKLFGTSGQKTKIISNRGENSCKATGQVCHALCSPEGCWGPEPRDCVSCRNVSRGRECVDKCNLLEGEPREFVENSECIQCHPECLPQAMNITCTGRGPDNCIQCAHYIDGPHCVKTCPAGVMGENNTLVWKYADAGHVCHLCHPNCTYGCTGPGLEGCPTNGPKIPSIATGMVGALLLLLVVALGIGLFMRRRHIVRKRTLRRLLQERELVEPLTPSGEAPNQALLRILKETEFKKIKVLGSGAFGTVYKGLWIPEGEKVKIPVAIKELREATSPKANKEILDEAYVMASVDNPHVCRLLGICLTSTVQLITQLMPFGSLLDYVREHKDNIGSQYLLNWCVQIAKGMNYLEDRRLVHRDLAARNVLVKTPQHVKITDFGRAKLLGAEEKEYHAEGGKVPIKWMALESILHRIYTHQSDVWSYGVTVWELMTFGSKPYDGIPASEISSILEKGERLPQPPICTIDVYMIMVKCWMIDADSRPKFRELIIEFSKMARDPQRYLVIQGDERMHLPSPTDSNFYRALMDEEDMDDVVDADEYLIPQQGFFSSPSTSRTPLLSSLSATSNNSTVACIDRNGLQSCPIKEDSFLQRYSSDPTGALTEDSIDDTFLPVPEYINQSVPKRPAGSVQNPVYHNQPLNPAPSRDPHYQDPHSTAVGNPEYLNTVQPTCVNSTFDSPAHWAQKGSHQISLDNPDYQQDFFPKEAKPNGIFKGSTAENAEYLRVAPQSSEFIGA
# procedure-summary: Biochemical EGFR kinase inhibition assay (Lance Ultra TR-FRET), double mutant L858R/C797S
# setup-conditions: ATP at Km; read-out: IC50 L858R/C797S (nM), Km ATP
Listing: IC50 of selected molecules
Please reply with the bare figure in nM and do not write the unit itself.

Examples with answers:
In [3]: df
Out[3]:
                         structure_notation  measured_property  value_unit  measured_result
0  Cn1cc(C#Cc2cnc(Nc3ccnc(Nc4ccccc4S(C)(=O)=O)n3)cc2N2CCC(C)(CO)CC2)cn1               IC50          nM             72.8
1  Cc1nn(S(=O)(=O)N(C)C)cc1-c1nccc(Nc2cc(N3CCC(C)(CO)CC3)c(C#Cc3cnn(C(F)(F)F)c3)cn2)n1               IC50          nM             18.9

Let us move to another entry and its IC50.
Req: Requested read-out: IC50. Entry: CC1(CO)CCN(c2cc(Nc3ccnc(-c4cnn(S(=O)(=O)C5CC5)c4)n3)ncc2C#Cc2cccc(C(=O)N3CCOCC3)c2)CC1
Resp: 1.3

---

# tested-on: EGFR L858R/T790M/C797S (Homo sapiens, UniProt P00533, C797S/L858R/T790M)
# Sequence (P00533 25-1210 T790M/C797S/L858R): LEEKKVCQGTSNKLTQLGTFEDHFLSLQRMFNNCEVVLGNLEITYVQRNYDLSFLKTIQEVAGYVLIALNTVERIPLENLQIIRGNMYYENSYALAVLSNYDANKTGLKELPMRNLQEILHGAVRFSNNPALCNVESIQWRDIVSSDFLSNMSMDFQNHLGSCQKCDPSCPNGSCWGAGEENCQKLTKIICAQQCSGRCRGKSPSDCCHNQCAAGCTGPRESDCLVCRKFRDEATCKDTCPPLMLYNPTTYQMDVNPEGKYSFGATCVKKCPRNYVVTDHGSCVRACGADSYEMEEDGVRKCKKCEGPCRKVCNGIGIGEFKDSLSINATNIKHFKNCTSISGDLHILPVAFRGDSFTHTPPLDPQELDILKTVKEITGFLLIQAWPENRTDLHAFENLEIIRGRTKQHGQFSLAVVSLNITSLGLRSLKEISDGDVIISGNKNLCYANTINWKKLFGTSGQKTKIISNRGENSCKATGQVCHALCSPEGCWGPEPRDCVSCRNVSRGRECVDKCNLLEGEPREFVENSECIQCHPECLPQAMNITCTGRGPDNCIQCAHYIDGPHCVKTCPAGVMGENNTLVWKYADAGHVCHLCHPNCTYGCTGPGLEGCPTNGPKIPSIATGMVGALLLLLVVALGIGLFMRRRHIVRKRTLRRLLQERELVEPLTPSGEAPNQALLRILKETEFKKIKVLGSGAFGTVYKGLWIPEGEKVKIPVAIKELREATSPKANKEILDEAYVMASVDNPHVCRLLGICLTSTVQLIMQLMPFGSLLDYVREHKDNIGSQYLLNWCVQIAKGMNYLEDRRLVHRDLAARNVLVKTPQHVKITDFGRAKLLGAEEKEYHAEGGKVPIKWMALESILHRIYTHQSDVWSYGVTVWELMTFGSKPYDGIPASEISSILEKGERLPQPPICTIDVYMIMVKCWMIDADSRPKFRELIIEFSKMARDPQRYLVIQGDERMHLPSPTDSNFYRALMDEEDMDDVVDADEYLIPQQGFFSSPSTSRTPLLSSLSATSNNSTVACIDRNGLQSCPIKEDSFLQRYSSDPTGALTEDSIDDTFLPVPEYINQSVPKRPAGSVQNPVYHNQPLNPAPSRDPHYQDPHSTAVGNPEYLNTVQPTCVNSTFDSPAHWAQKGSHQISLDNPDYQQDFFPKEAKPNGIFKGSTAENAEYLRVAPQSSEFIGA
# procedure-summary: Biochemical EGFR kinase inhibition assay (Lance Ultra TR-FRET), triple mutant L858R/T790M/C797S
# setup-conditions: Km ATP; read-out: IC50 L858R/T790M/C797S (nM) Km ATP
Listing: IC50 of selected compounds
Don't forget the unit after the number, please.

Examples with answers:
                                   compound  measured_result
0  CN(C)CCCn1cc(C#Cc2cnc(Nc3ccnc(-c4cnn(S(=O)(=O)C5CC5)c4)n3)cc2N2CCC(NCCF)CC2)cn1           0.1 nM
1  CCC(C)Oc1cc(Nc2ccnc(-c3cnn(S(=O)(=O)C4CC4)c3)n2)ncc1C#Cc1cnn(C(C)C)c1 (stereo not shown)          26.1 nM
2  Cn1cc(C#Cc2cnc(Nc3ccnc(-c4cnn(S(=O)(=O)C5CC5)c4)n3)cc2-c2cnn(C3CC3)c2)cn1          13.2 nM

Let us move to another entry and its IC50.
Req: Requested read-out: IC50. Entry: CN(C)CCn1cc(C#Cc2cnc(Nc3ccnc(-c4cnn(S(=O)(=O)C5CC5)c4)n3)cc2N2CCC(NCCF)CC2)cn1
Resp: 0.1 nM

---

# tested-on: EGFR L858R/T790M/C797S (Homo sapiens, UniProt P00533, C797S/L858R/T790M)
# procedure-summary: Biochemical EGFR kinase inhibition assay (Lance Ultra TR-FRET), triple mutant L858R/T790M/C797S
# setup-conditions: IC50 L858R/T790M/C797S (nM), 100 μM ATP
Counter-ions that a name gives are not always drawn.
Listing: IC50 of selected compounds
Don't forget the unit after the number, please.

Examples with answers:
In [3]: df
Out[3]:
                                   compound  measured_property  measured_result
0  Cn1cc(C#Cc2cnc(Nc3ccnc(-c4cnn(S(=O)(=O)C5CC5)c4)n3)cc2N2CCC(F)(C(F)(F)F)CC2)cn1               IC50          31.1 nM
1  O=S(=O)(C1CC1)n1cc(-c2nccc(Nc3cc(N[C@H]4CC[C@@H](O)CC4)c(C#CC4CCOCC4)cn3)n2)cn1               IC50           0.3 nM
2  COC1CCN(c2cc(Nc3ccnc(-c4cnn(S(=O)(=O)C5CC5)c4)n3)ncc2C#Cc2cnn(C3CCN(C(C)=O)CC3)c2)CC1               IC50           2.9 nM
3  CN(C)CCC1CCN(c2cc(Nc3ccnc(-c4cnn(S(=O)(=O)C5CC5)c4)n3)ncc2C#Cc2cnn(C)c2)CC1 [Example 294, formate]               IC50           0.1 nM
4  CC1(O)CCN(c2cc(Nc3ccnc(-c4cnn(S(=O)(=O)C5CC5)c4)n3)ncc2C#Cc2ncc(CN3CCOCC3)cn2)CC1               IC50           0.6 nM

Let us move to another entry and its IC50.
Req: Requested read-out: IC50. Entry: CC1(CO)CCN(c2cc(Nc3ccnc(-c4cnn(S(=O)(=O)C5CC5)c4)n3)ncc2C#Cc2ccc(CN3CCOCC3)nc2)CC1
Resp: 0.8 nM
